Experiment: small-molecule microarray binders of probe aXIP, primary screen, biochemical, NeuroSMM set, 635/667 nm fluorescence (AID 1119);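 note: probe is the protein aXip251-270 applied at 1 µg/mL to compound-printed slides; binding of probe to printed compounds measured as 667 nm fluorescence plus signal to noise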
Details: higher = more signal, called active from +8 up or from −8 down
Could you label it Criterion met if measured composite Z-score is 0.5 or higher, and Criterion not met otherwise?

compound	qualitative.label
CCCNC(=O)[C@@]1(Sc2ccc(C)cc2)CC(=O)N(Cc2cc(C(F)(F)F)cc(C(F)(F)F)c2)[C@@H]1c1ccc(CO)cc1I	Criterion not met
O=C1c2ccccc2C(=O)c2cc([C@H]3Oc4ccccc4S(=O)(=O)N4CCC[C@@H]34)ccc21	Criterion not met
CC(C)C(CO)N1C(=O)[C@@H]2[C@H]3C(=O)OCC=C[C@H]3OC23C=CCN(Cc2ccccc2)C(=O)[C@@H]13 (stereo partly drawn)	Criterion not met
O=C(O)[C@H]1C[C@H]2C(=O)NCC(=O)N2[C@H]1c1cccc(OCCO)c1	Criterion not met
C#CCN1C(C(=O)OCC)OC[C@H]1c1ccccc1 (stereo partly drawn)	Criterion not met
COc1ccc([Si](C)(C)[C@@H]2[C@@H](CC(=O)N3CCC[C@H]3CO)O[C@]3(C(=O)N(Cc4ccc(N5CCC5=O)cc4)c4ccccc43)[C@H]2C)cc1	Criterion met
COCCCNC(=O)[C@@]1(Cc2ccccc2CN=[N+]=[N-])COC(c2ccc(OCCCO)cc2)=N1	Criterion met
COc1ccc(C#Cc2ccc3c(c2)[C@]2(C(=O)N3)[C@H](c3ccc(O)cc3)N3[C@H](c4ccccc4)[C@H](c4ccccc4)OC(=O)[C@H]3[C@@H]2C(=O)N2CCN(c3ncccn3)CC2)cc1	Criterion met

====

Test: inhibitors of PAX8-driven TPO luciferase reporter, dose response, RMG-I cells, cherry-pick (AID 687027)
Conditions: RMG-I TPO-Luc reporter, SteadyGlo luminescence, 24 h; series mostly up to 35 µM
Entries with a potency or affinity are not part of this list. The source made the active and inactive calls.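 The calls were made as follows: active = every replicate test run called active, with the signal dropping as expected and potency within twice the top valid dose; inconclusive = test runs disagree, or a flat partial drop or poor fit; inactive = every test run inactive, or effect opposite to expected.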
measurement.label: activity change, negative = inhibition

molecule	result
O=C(Cc1ccccn1)N[C@H]1CC[C@H](CCn2cc(-c3ccccc3)nn2)O[C@@H]1CO	inactive
CCCCC1Cc2[nH]c(=S)[nH]c(=O)c2C(c2ccc(F)cc2)O1 (centres undefined)	inactive
COc1ccc(C(=O)NC(=S)NNC(=O)c2c(-c3ccccc3)noc2C)cc1	inactive
C[C@H]1CN([C@@H](C)CO)C(=O)c2cccc(NC(=O)Nc3ccc(C(F)(F)F)cc3)c2O[C@H]1CN(C)C(=O)NC1CCCCC1	inactive
CN(CC(=O)Nc1cccc(F)c1)C(=O)CCCc1cccs1	inactive
COc1ccc(-c2ccc3c(c2)[C@H]2[C@H](CCN2C(=O)Cc2cccnc2)[C@H](CO)N3C)cc1	inactive
CCCNC(=O)COc1nc2ccccc2nc1N1CCOCC1	inactive
O=C(NC1CCCCCC1)C1c2ccccc2C(=O)N1Cc1cccs1 (centres undefined)	inactive
C[C@@H]1CN([C@@H](C)CO)C(=O)c2cc(NC(=O)Nc3ccccc3)ccc2O[C@@H](C)CCCCO[C@H]1CN(C)Cc1ccc(Cl)c(Cl)c1	inactive

====

Molecular target: Torsin-1A (Homo sapiens)
Experiment: small-molecule binders of mutant TOR1A in lysate, primary screen, cell lysate, small-molecule microarray, COS7 lysate, 635/667 nm fluorescence (AID 1150);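 note: score pools 667 nm emission and signal to noise measuring lysate protein binding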
Conditions: COS7 hTOR1A mutant lysate, 635 nm fluorescence, higher = more signal
Could you label it true (1) if measured composite z-score is 0.3 or higher, and false (0) otherwise?

compound	tested.on	qualitative.label
COc1ccc([Si](C)(C)[C@H]2[C@H](CC(=O)N(CCO)Cc3ccccc3)O[C@@]3(C(=O)N(Cc4cccc(N5C(=O)COc6ccccc65)c4)c4ccccc43)[C@@H]2C)cc1	Torsin-1A (Homo sapiens)	true (1)
O=C(NCc1ccccc1)[C@@H]1c2ccccc2C(=O)N(Cc2ccccc2Cl)[C@H]1c1ccc(CO)cc1	Torsin-1A (Homo sapiens)	true (1)
CCCNC(=O)[C@@]1(Sc2ccc(C)cc2)CC(=O)N(Cc2cc(C(F)(F)F)cc(C(F)(F)F)c2)[C@@H]1c1ccc(CO)cc1I	Torsin-1A (Homo sapiens)	false (0)
C=C1C=C(Br)C2(OCCCO2)[C@H]2OC12 (stereo not given in full)	Torsin-1A (Homo sapiens)	true (1)
CC(C)(C)OC(=O)CC[C@@]12N=C(c3ccc(OCCCO)cc3)O[C@@H]1c1ccccc1N(Cc1ccccc1)C2=O	Torsin-1A (Homo sapiens)	true (1)
CC(C)C(CO)N1C(=O)[C@@H]2[C@H]3C(=O)OCC=C[C@H]3OC23C=CCN(Cc2ccccc2)C(=O)[C@@H]13 (stereo not given in full)	Torsin-1A (Homo sapiens)	false (0)
C=CCN1C(=O)[C@]2(O[C@H](CCn3cc([C@H](O)c4ccccc4)nn3)[C@@H]([Si](C)(C)c3ccc(OC)cc3)[C@@H]2C)c2cc(N3CCOC3=O)ccc21	Torsin-1A (Homo sapiens)	true (1)
C=C[C@H](OC)[C@@H](OC(=O)Nc1ccc(OC)cc1)c1ccc(OC)c(O)c1	Torsin-1A (Homo sapiens)	false (0)
CO[C@H]1O[C@H](CO)[C@@H](OC(=O)Nc2ccccc2)[C@H](OC(=O)Nc2ccccc2-c2ccccc2)[C@@H]1OC(=O)Nc1ccccc1-c1ccccc1	Torsin-1A (Homo sapiens)	true (1)
O=C(NO)[C@]1(Cc2ccccc2)N=C(c2ccc(OCCCO)cc2)O[C@@H]1c1ccccc1	Torsin-1A (Homo sapiens)	true (1)
C=CCC(OC(C)=O)[C@@H]1[C@@H](N(Cc2cccc3ccccc23)C(=O)c2cccc3ccccc23)c2cc(OCCCO)ccc2N1C(=O)Cc1ccc(OC)cc1 (stereo not given in full)	Torsin-1A (Homo sapiens)	false (0)
COC(=O)[C@@]1(CCC(=O)OC(C)(C)C)COC(c2ccc(OCCCO)cc2)=N1	Torsin-1A (Homo sapiens)	false (0)
O=C(O)[C@H]1C[C@H]2C(=O)NCC(=O)N2[C@H]1c1cccc(OCCO)c1	Torsin-1A (Homo sapiens)	true (1)
CCOC(=O)C[C@H]1[C@H](OC(=O)Cc2ccc3c(c2)OCO3)[C@@H](NC(=O)c2ccc3ccccc3c2)c2cc(OCCCO)ccc2N1C(=O)c1ccc2ccccc2n1	Torsin-1A (Homo sapiens)	false (0)
[N-]=[N+]=NCc1ccccc1C[C@]1(C(=O)NCc2ccccc2)N=C(c2ccc(OCCCO)cc2)O[C@H]1c1ccccc1	Torsin-1A (Homo sapiens)	true (1)
